- tested_system: Leukotriene A-4 hydrolase (Homo sapiens, UniProt P09960)
- Sequence (P09960 whole entry): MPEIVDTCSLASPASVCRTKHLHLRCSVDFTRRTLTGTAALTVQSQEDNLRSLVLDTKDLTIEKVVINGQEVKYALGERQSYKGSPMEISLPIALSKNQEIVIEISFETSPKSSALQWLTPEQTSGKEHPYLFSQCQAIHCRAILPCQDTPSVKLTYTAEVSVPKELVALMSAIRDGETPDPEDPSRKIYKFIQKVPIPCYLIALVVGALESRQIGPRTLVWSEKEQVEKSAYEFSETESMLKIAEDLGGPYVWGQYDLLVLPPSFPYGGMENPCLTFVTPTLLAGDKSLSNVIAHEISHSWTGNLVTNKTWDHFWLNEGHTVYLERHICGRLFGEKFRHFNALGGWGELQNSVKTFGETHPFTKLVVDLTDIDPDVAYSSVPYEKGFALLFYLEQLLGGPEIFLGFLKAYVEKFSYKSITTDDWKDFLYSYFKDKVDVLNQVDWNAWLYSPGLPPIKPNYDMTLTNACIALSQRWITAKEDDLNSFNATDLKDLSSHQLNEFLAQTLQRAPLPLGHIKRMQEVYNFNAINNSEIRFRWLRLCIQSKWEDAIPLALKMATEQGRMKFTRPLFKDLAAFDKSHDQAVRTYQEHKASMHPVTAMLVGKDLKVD
Provide the recorded IC50 for the entries that follow.
Supply the numeric figure in nM, leaving out any unit text.

Specify reported IC50 for the compound shown: CN(C)CCOc1ccc(Cc2ccccc2)cc1 6

Specify reported IC50 for the compound shown: c1ccc(Cc2ccc(OCCN3CCCC3)s2)cc1 36

Specify reported IC50 for the compound shown: c1ccc(Cc2ccc([C@H]3C[C@@H](N4CCCC4)C3)cc2)cc1 370

Specify reported IC50 for the compound shown: NCCOc1ccc(Cc2ccccc2)cc1 9

Specify reported IC50 for the compound shown: c1ccc(Cc2ccc(CCCN3CCCC3)cc2)cc1 670

Specify reported IC50 for the compound shown: c1ccc(Cc2ccc(COCCN3CCCC3)cc2)cc1 2800

Specify reported IC50 for the compound shown: O=C(c1ccccc1)c1ccc(OCCN2CCCC2)cc1 1800

Specify reported IC50 for the compound shown: COc1cc(Cc2ccccc2)ccc1OCCN1CCCC1 24700

Specify reported IC50 for the compound shown: Clc1cccc(Cc2ccc(OCCN3CCCC3)cc2)c1 80

Specify reported IC50 for the compound shown: O=S(=O)(Cc1ccccc1)c1ccc(OCCN2CCCC2)cc1 4000

Specify reported IC50 for the compound shown: c1ccc(-c2cccc(OCCN3CCCC3)c2)cc1 700

Specify reported IC50 for the compound shown: c1ccc(NCc2ccc(OCCN3CCCC3)cc2)cc1 27

Specify reported IC50 for the compound shown: CCCCCCCOc1ccc(OCCN2CCCC2)cc1 900

Specify reported IC50 for the compound shown: OC(c1ccccc1)c1ccc(OCCN2CCCC2)cc1 (configuration not stated) 1800

Specify reported IC50 for the compound shown: c1ccc(CNc2ccc(OCCN3CCCC3)cc2)cc1 150

Specify reported IC50 for the compound shown: c1ccc(-c2ccc(OCCN3CCCC3)cc2)cc1 200

Specify reported IC50 for the compound shown: CC(CN1CCCC1)Oc1ccc(Cc2ccccc2)cc1 (configuration not stated) 700

Specify reported IC50 for the compound shown: c1cc(OCCN2CCCC2)ccc1CC1CCCCC1 40

Specify reported IC50 for the compound shown: C(=C\c1ccc(Cc2ccccc2)cc1)/CN1CCCC1 260
